Biological target: maltase (from porcine intestinal mucosa)
Test: inhibitory activity against maltase prepared from porcine intestinal mucosa (substrate maltose)
Format: biochemical
Details: read-out: The concentrations of 50% inhibition against maltase (substrate:maltose) IC50; Table 1; porcine intestinal mucosa maltase, substrate maltose, pH 6.8, 37° C.
Define the label as label 1 when IC50 is strictly less than 2000 nM and as label 0 in all remaining cases.

Asked: Is it true that IC50 reported for OCC(CO)N[C@H]1C[C@](O)(CO)[C@@H](O)[C@H](O)[C@H]1O [drawing 7] is less than 2000 nM?
Given back: label 1

Asked: Is it true that IC50 reported for OC[C@@]1(O)C[C@H](NCC(O)c2ccccc2)[C@H](O)[C@@H](O)[C@@H]1O (single isomer, unassigned) [drawing 9] is less than 2000 nM?
Given back: label 1

Asked: Is it true that IC50 reported for OC[C@@]1(O)C[C@H](NCCc2ccccc2)[C@H](O)[C@@H](O)[C@@H]1O [drawing 13] is less than 2000 nM?
Given back: label 1

Asked: Is it true that IC50 reported for OC[C@H]1C[C@H](NCC(O)c2ccccc2)[C@H](O)[C@@H](O)[C@@H]1O (stereo partly drawn) [drawing 10] is less than 2000 nM?
Given back: label 1

Asked: Is it true that IC50 reported for OC[C@@]1(O)C[C@H](NCC(O)COc2ccccc2)[C@H](O)[C@@H](O)[C@@H]1O (stereo partly drawn) [drawing 12] is less than 2000 nM?
Given back: label 1

Asked: Is it true that IC50 reported for OC[C@H]1C[C@H](NCCCc2ccccc2)[C@H](O)[C@@H](O)[C@@H]1O [drawing 14] is less than 2000 nM?
Given back: label 0

Asked: Is it true that IC50 reported for OCC(N[C@H]1C[C@H](CO)[C@@H](O)[C@H](O)[C@H]1O)C(O)c1ccccc1 (stereo partly drawn) [drawing 11] is less than 2000 nM?
Given back: label 0

Asked: Is it true that IC50 reported for `CC(C)(C)c1cc(CN[C@H]2C[C@H](CO)[C@@H](O)[C@H](O)[C@H]2O)cc(C(C)(C)C)c1O` is less than 2000 nM?
Given back: label 0

Asked: Is it true that IC50 reported for OC[C@@]1(O)C[C@H](NCC(O)c2ccccc2)[C@H](O)[C@@H](O)[C@@H]1O (single isomer, unassigned) [drawing 8] is less than 2000 nM?
Given back: label 1

---

Would you kindly list pIC50 for each of these compounds?
Target: saccharase (from porcine intestinal mucosa) (Sus scrofa, UniProt P56729)
Construct: maltase and saccharase prepared from porcine intestinal mucosa; from tissue; host or cells: porcine intestinal mucosa
Sequence (P56729 with tags, fused parts or gaps limits assumed): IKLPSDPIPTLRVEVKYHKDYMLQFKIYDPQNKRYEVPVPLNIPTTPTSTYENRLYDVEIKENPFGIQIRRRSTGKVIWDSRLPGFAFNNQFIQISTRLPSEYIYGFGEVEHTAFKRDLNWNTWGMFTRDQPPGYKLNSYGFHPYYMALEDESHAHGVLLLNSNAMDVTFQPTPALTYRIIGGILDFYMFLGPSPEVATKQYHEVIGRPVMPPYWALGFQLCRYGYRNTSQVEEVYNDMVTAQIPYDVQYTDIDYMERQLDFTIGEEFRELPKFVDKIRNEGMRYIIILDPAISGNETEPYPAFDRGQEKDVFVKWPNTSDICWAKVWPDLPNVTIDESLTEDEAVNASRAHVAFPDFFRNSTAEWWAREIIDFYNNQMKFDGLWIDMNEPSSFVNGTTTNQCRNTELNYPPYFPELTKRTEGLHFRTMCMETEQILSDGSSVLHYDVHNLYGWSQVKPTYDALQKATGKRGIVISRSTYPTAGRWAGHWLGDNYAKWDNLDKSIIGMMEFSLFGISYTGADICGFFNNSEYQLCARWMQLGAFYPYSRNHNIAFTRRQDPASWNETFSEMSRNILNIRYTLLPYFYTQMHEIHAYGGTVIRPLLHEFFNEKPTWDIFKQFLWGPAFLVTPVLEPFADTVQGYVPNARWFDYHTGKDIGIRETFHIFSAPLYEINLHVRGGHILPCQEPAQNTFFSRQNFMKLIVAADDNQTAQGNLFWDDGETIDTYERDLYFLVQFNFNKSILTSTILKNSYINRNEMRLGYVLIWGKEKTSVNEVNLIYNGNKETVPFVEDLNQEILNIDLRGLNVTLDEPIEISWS
Sequence (P56729 with tags, fused parts or gaps partner limits assumed): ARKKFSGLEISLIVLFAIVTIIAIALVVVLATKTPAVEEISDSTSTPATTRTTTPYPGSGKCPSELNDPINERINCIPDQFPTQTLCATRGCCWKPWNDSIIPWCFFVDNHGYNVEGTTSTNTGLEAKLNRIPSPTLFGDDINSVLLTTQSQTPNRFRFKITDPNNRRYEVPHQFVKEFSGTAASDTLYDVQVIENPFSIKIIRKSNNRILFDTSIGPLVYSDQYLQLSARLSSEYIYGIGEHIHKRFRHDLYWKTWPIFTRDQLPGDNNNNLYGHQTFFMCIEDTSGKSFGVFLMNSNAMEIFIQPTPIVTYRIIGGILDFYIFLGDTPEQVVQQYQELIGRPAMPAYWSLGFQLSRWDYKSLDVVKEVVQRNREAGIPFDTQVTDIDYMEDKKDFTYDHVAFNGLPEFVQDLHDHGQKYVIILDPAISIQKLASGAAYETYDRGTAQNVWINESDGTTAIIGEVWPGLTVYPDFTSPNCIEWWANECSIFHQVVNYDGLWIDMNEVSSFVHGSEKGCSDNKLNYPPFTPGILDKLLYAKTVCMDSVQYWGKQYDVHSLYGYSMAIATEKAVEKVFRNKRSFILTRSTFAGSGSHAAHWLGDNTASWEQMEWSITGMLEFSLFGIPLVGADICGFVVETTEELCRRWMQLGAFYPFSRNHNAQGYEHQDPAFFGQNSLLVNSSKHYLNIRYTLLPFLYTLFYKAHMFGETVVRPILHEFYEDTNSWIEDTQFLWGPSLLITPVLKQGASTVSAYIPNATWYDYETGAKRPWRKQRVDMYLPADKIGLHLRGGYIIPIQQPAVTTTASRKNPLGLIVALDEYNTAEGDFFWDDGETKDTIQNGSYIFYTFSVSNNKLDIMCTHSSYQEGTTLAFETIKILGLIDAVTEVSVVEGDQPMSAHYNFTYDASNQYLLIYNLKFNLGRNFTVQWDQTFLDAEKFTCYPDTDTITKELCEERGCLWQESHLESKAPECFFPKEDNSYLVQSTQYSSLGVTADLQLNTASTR
Assay: inhibitory activity against saccharase prepared from porcine intestinal mucosa (substrate sucrose)
Type: biochemical
Conditions: Table 2; porcine intestinal mucosa saccharase, substrate sucrose, pH 6.8, 37° C.
When answering, recall that pIC50 equals minus log10 of the concentration in mol/L, and write that number alone.

Asked: For `CC(C)=CCC/C(C)=C/CN[C@H]1C[C@](O)(CO)[C@@H](O)[C@H](O)[C@H]1O` , what is its reported pIC50?
Given back: 7.96

Asked: For `OC[C@@]1(O)C[C@H](NCc2ccc(Br)cc2)[C@H](O)[C@@H](O)[C@@H]1O` , what is its reported pIC50?
Given back: 7.82

Asked: For `OC[C@@]1(O)C[C@H](NCC2CCCCC2)[C@H](O)[C@@H](O)[C@@H]1O` , what is its reported pIC50?
Given back: 8.03

Asked: For OC[C@@]1(O)C[C@H](NCC(O)COc2ccccc2)[C@H](O)[C@@H](O)[C@@H]1O (some centres unmarked) [drawing 20] , what is its reported pIC50?
Given back: 8.07

Asked: For OCC1(O)CC(NCc2ccco2)C(O)C(O)C1O (centres unmarked) , what is its reported pIC50?
Given back: 7.82

Reference source for all entries: patent US4803303A
